# System: HeLa
# Experiment Summary: Inhibition of TNF-alpha-induced NF-kappaB transfected in human HeLa cells preincubated for 30 mins before TNFalpha challenge after 6 hrs by luciferase reporter gene assay
# Format: cell-based
Result Type: IC50 (µM)

A. CCCc1cc(N2CCC(O)CC2)nc2sc(C(N)=O)c(N)c12
B. CCCc1cc(N2CCC(N)CC2)nc2sc(C(N)=O)c(N)c12
Q: Which shows the larger IC50 value: A or B ? To answer, give the label that identifies your chosen option.
A: A
(A: 5.3 µM, B: 1.5 µM)

----------
Below are compounds with their IC50 as measured on Insulin receptor (Homo sapiens).
Sequence (P06213 28-758 limits assumed): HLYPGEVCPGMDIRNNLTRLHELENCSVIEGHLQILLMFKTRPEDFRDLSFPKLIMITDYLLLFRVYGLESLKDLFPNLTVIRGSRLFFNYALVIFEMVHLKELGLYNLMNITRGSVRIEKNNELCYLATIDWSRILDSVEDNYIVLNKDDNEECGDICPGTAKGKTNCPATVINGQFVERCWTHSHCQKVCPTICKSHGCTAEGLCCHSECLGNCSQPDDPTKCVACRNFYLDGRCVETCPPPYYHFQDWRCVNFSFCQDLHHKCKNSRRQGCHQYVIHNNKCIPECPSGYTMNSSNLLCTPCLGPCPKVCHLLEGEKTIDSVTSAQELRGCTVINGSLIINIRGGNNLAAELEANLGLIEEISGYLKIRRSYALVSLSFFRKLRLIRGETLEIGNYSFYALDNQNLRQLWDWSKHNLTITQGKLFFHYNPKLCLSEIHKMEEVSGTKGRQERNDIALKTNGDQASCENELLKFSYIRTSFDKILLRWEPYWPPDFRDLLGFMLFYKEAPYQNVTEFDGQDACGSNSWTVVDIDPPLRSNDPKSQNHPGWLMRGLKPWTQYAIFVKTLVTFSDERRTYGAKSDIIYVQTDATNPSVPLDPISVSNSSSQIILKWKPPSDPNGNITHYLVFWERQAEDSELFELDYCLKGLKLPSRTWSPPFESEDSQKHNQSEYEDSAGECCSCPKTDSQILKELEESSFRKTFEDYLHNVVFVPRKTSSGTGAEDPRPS
Sequence (P06213 763-1382 limits assumed): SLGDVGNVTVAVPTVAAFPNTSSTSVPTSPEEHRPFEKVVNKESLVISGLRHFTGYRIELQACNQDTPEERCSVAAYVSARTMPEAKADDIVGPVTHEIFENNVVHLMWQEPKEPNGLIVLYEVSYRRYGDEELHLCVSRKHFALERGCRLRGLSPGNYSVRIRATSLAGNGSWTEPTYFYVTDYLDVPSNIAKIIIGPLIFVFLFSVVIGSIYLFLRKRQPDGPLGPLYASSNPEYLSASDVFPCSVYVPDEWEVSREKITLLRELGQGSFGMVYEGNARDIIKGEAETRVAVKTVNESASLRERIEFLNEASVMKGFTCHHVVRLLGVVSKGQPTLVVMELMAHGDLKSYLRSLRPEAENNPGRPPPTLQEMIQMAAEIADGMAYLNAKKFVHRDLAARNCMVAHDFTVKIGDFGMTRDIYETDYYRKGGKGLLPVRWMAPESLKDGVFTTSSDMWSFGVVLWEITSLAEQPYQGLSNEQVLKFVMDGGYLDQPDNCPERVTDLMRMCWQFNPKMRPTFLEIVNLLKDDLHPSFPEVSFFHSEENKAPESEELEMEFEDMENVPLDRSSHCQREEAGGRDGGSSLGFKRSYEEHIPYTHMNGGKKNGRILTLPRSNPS

{"columns": ["Compound", "Assayed Target", "IC50"],
 "data": [
  ["CCCc1cc(N2CCC(O)CC2)nc2sc(C(N)=O)c(N)c12", "Insulin receptor (Homo sapiens)", "> 7 µM"]
]}

Kindly consider the entry below.
Q: Provide Insulin receptor (Homo sapiens) IC50 reading for CCCc1cc(N2CCCC(O)C2)nc2sc(C(N)=O)c(N)c12 (configuration not stated) .
A: > 7 µM
